// data source = ChEMBL document CHEMBL3769367

Test: Oral bioavailability in Sprague-Dawley rat
Type: ADME, organism-based
Conditions: in vivo
property: bioavailability (%)
API: value field is a number in %; no unit string.

Given `COc1ccc(CNC(=O)c2cc(-c3cncc(Cl)c3)cnc2-c2ccccn2)nc1OC` , state its recorded bioavailability. 54

====

Target: Orexin/Hypocretin receptor type 1 (Homo sapiens)
Sequence (O43613 whole entry): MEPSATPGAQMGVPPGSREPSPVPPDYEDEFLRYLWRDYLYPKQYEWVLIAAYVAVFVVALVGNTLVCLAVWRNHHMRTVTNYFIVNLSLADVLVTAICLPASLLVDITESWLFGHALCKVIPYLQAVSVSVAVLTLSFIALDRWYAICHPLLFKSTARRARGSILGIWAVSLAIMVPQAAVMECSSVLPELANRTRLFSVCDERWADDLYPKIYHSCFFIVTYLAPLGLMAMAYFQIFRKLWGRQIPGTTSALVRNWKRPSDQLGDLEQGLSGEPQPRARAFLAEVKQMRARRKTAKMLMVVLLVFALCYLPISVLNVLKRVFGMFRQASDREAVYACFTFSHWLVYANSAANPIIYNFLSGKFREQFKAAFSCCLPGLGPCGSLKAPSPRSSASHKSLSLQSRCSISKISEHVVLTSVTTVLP
Test: Antagonist activity at human OX1R expressed in CHO cells assessed as inhibition of orexin-A-induced intracellular calcium release by FLIPR assay
Type: functional, cell-based
Items are presented alongside their recorded IC50.
Enter your answer as a number in nM; do not include the unit.

INSERT INTO results (chem_smiles, property, uom, reported_result) VALUES
  ('COc1ccc(S(=O)(=O)N2CCC[C@H]2C(=O)Nc2cccc(SC)c2)cc1', 'IC50', 'nM', 31);

Okay, now this molecule:
Look up IC50 for this molecule: `CSc1cccc(NC(=O)[C@@H]2CCCN2S(=O)(=O)c2ccc(Br)s2)c1` 21

====

Assay: Plasma protein binding in Sprague-Dawley rat
Format: ADME, cell-free
Conditions: read-out: PPB (converted)
property: fraction unbound
Output: the number by itself.

# input compound: COc1ccc(CNC(=O)c2cc(-c3cncc(Cl)c3)cnc2-c2ccccn2)nc1OC [MK-1064] ; wanted: its fraction unbound 0.19

====

Target: Orexin receptor type 2 (Homo sapiens)
Sequence (O43614 whole entry): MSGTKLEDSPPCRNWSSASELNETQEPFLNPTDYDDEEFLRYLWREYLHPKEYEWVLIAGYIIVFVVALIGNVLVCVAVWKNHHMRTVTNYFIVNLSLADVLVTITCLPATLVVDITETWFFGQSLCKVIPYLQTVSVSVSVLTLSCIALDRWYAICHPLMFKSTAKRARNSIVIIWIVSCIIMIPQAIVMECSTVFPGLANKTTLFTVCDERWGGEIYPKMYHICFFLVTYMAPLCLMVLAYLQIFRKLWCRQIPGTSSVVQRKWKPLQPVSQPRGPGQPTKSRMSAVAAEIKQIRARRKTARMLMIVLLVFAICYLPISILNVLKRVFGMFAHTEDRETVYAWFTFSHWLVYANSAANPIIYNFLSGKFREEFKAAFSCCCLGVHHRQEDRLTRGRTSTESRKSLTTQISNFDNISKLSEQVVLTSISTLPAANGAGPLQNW
property: Ki (nM)
Respond numerically; units are nM and should not be typed.

Use these answered entries as a reference point.
INSERT INTO measurements (molecule, subject_of_test, uom, reported_result) VALUES
  ('Cc1ccc(-n2nccn2)c(C(=O)N2C[C@@H](COc3ccc(F)c(C)c3)CC[C@H]2C)c1 (racemic)', 'Orexin receptor type 2 (Homo sapiens)', 'nM', 22),
  ('Cc1nc(C(=O)N2CCCCC2CCOc2ccc(F)cc2)c(-c2ccccc2)s1 (stereo not drawn)', 'Orexin receptor type 2 (Homo sapiens)', 'nM', 4);

Form field: Ki recorded for Cc1ccc(-n2nccn2)c(C(=O)N2C[C@H](COc3ccc(F)c(C)c3)CC[C@H]2C)c1 (racemic) with Orexin receptor type 2 (Homo sapiens) (enter value) 0.1

====

Collected fraction unbound values appear next to each entry.
Test: Plasma protein binding in Beagle dog
Assay type: ADME, cell-free, Canis lupus familiaris
Conditions: read-out: PPB (converted)
Respond using a number only.

INSERT INTO measurements (chem_smiles, reported_result) VALUES
  ('COc1ccc(S(=O)(=O)N2CCC[C@H]2C(=O)Nc2cc(C)cc(C)c2)cc1', 0.011);

API: the following record is the query input.
// query fraction unbound value for entry `COc1ccc(CNC(=O)c2cc(-c3cncc(Cl)c3)cnc2-c2ccccn2)nc1OC` 0.29

====

In this section we review reported Kp values for a set of molecules.
Assay: Ratio of drug level in brain to plasma in Wistar rat
Format: ADME, cell-free
Conditions: read-out: BPR
The reply should be a number, written without any unit.

INSERT INTO assay_data (molecule, reported_result) VALUES
  ('CNC(=O)[C@@H](c1ccccc1)N1CCc2cc(OC)c(OC)cc2[C@@H]1CCc1ccc(C(F)(F)F)cc1 [ALMOREXANT]', 0.3);

Form field: reported Kp of COc1ccc(S(=O)(=O)N2CCC[C@H]2C(=O)Nc2cc(C)cc(C)c2)cc1 [ACT-462206] 0.46

====

Experiment: Half life in iv dosed Beagle dog
Type: ADME, organism-based, Canis lupus familiaris
Conditions: in vivo
property: half-life (h)
Your answer is read as h, so omit the unit and give the number.

Which half-life reading was recorded for the compound `COc1ccc(CNC(=O)c2cc(-c3cncc(Cl)c3)cnc2-c2ccccn2)nc1OC` ? 1

====

Assay: Oral bioavailability in Wistar rat
Format: ADME, organism-based
Details: in vivo
property: bioavailability (%)
Answer with a number only, understood to be in %.

Param item = `CNC(=O)[C@@H](c1ccccc1)N1CCc2cc(OC)c(OC)cc2[C@@H]1CCc1ccc(C(F)(F)F)cc1` ; retrieve measured bioavailability. 8

====

Target: Orexin/Hypocretin receptor type 1 (Homo sapiens, UniProt O43613)
Test: Antagonist activity at OX1R (unknown origin)
property: pIC50
Please treat pIC50 as minus the base-10 logarithm of the molar concentration.

INSERT INTO assay_data (compound, reported_result) VALUES
  ('COc1ccc(CC2c3cc(OC(C)C)c(OC)cc3CCN2CC(=O)NCc2ccccc2)cc1OC (centres undefined)', 7.77),
  ('COc1cccc(OC)c1C(=O)N1CCCN(c2nc3ccc(Cl)cc3s2)CC1', 6.20),
  ('Cc1nc(C(=O)N2CCCC[C@H]2CCOc2ccc(F)cc2)c(-c2ccccc2)s1', 7.92);

Let us move to another entry and its pIC50.
Return reported pIC50; argument: `CCN(CCN(C)c1nc2ccccc2o1)C(=O)c1cc(C)ccc1-n1nccn1` 7.89

====

Assay: Plasma protein binding in human
Assay type: ADME, cell-free
Settings: read-out: PPB (converted)
Reported fraction unbound values for the following compounds.
Respond with the number and no other words.

Solved cases below.
INSERT INTO results (chem_smiles, reported_result) VALUES
  ('COc1ccc(S(=O)(=O)N2CCC[C@H]2C(=O)Nc2cc(C)cc(C)c2)cc1', 0.007),
  ('Cc1ccc(-c2ncccn2)c(C(=O)N2C[C@H](COc3ccc(F)cn3)CC[C@H]2C)c1', 0.025);

Okay, now this compound:
Look at this compound and give its reported fraction unbound. `COc1ccc(CNC(=O)c2cc(-c3cncc(Cl)c3)cnc2-c2ccccn2)nc1OC` 0.03

====

Assay: Lipophilicity, log D of the compound
Type: physicochemical
Details: octanol/water
property: logD
Number only, no unit.

Please give the measured logD for this compound: COc1ccc(CNC(=O)c2cc(-c3cncc(Cl)c3)cnc2-c2ccccn2)nc1OC [MK-1064] 1.8

====

Assay: Oral bioavailability Beagle dog
Assay type: ADME, organism-based, Canis lupus familiaris
Conditions: in vivo
property: bioavailability (%)
API: value field is a number in %; no unit string.

Name the recorded bioavailability for COc1ccc(CNC(=O)c2cc(-c3cncc(Cl)c3)cnc2-c2ccccn2)nc1OC [MK-1064] . 48

====

Assay: Plasma protein binding in rhesus monkey
Format: ADME, cell-free, Macaca mulatta
Conditions: read-out: PPB (converted)
property: fraction unbound
The reply should be a number, written without any unit.

Bench note: what fraction unbound did COc1ccc(CNC(=O)c2cc(-c3cncc(Cl)c3)cnc2-c2ccccn2)nc1OC [MK-1064] show? 0.06

====

Experiment: Clearance in iv dosed Sprague-Dawley rat
Assay type: ADME, organism-based
Details: in vivo
property: clearance (mL/min/kg)
Provide the reading as a plain figure in mL/min/kg.

Which clearance value is on record for COc1ccc(CNC(=O)c2cc(-c3cncc(Cl)c3)cnc2-c2ccccn2)nc1OC [MK-1064] ? 36

====

Assay: Tmax in human at 1 to 1500 mg, po administered as single dose
Type: ADME, organism-based
Conditions: in vivo
property: Tmax (h)
// units = h; emit number, no label

So what's the measured Tmax for this one? `COc1ccc(S(=O)(=O)N2CCC[C@H]2C(=O)Nc2cc(C)cc(C)c2)cc1` 1.5
